# System: RNAi-treated eri-1 (mg366) nematodes
# method_notes: RNAi screening of olfactory receptor genes: chemotaxis assay of RNAi-treated nematodes to odorants
# Format: in vivo, Caenorhabditis elegans
# assay_setup: srh-109 RNAi-treated nematodes; repellent or high concentration of attractant
observation_type: chemotaxis index
Just the number, please, no unit attached.

Example molecules with recorded chemotaxis index:
smiles_string: CCCCCCCC(C)=O
system_tested: RNAi-treated eri-1 (mg366) nematodes
quantitative_readout: −0.84
--
smiles_string: O=Cc1ccccc1
system_tested: RNAi-treated eri-1 (mg366) nematodes
quantitative_readout: −0.87
--
smiles_string: CCCCCCCCO
system_tested: RNAi-treated eri-1 (mg366) nematodes
quantitative_readout: −0.91

Inquiry: Find the measured chemotaxis index of `CC(C)CCO` and report it.
Reply text: −0.68

Inquiry: Give recorded chemotaxis index. `CC(=O)C(C)=O`
Reply text: −0.59
